protocolText: Phase 1 study: single- and multiple-dose plasma pharmacokinetics
Assay type: in vivo, human (Japanese patients)
measurementConditions: human, plasma, po, 0.75 mg, plasma, single dose 0.75 mg oral, N = 3; mean (standard deviation); read-out: t1/2 (terminal half-life) (converted)
measureName: half-life (h)
Give your result in h as a bare value.

The recorded half-life for Cn1ncnc1[C@H]1c2n[nH]c(=O)c3cc(F)cc(c23)N[C@@H]1c1ccc(F)cc1 [Talazoparib, talazoparib] is 56.6

====

protocolText: Phase 1 study: single- and multiple-dose plasma pharmacokinetics
Type: in vivo, human (Japanese patients)
measurementConditions: human; plasma, single dose 0.75 mg oral, N = 3; geometric mean (geometric %CV)
measureName: AUC(0-inf) (ng·h/mL)
Give your result in ng·h/mL as a bare value.

The recorded AUC(0-inf) for Cn1ncnc1[C@H]1c2n[nH]c(=O)c3cc(F)cc(c23)N[C@@H]1c1ccc(F)cc1 is 108
